Biological target: T1, Rhed (RNA-binding heme domain of DGCR8), heme-bound (Homo sapiens, UniProt Q8WYQ5 285-478)
T1 sequence: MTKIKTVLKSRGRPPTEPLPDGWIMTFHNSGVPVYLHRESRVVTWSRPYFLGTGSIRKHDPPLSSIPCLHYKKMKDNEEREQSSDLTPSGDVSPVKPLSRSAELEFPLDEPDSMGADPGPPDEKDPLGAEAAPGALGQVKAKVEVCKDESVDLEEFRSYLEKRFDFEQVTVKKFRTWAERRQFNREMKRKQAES
Assay: EMSA
endpoint-name: Kd (µM)

In [3]: df
Out[3]:
                                     binder  reported_result
0  GGAGACUGAUUGUCAUAUGUCGUUUGUGGGAUCCGUCUCC (structured_RNA) [pri-miR-340 apical stem-loop fragment]              3.5
